Where do these numbers come from? They come from PubChem BioAssay.

target: Protein kinase 7 (PK7), Plasmodium falciparum 3D7 (PF3D7_0213400); experiment: inhibition of Plasmodium PK7 catalytic activity – biochemical, TCAMS antimalarial set, Kinase-Glo luminescence (AID 1159587); details: recombinant PfPK7, Kinase-Glo ATP depletion luminescence
Calls of active or inactive are those of the source. No rule for the calls is given here.
observationType: outcome

Give its outcome value. Item: `O=C(Nc1ccc(C(F)(F)F)cc1)c1ccc(S(=O)(=O)NC2CCN(CC3CCCCC3)CC2)cc1`
inactive

Look up outcome for this molecule: CC(C)(C)c1ccc(CN2CCC(NC(=O)c3cc(-c4cccc(C(F)(F)F)c4)cs3)C2)cc1 (stereo not drawn)
inactive

Any idea what its outcome is? The molecule is CC(C)(C)SCC(O)Cn1c2ccc(Br)cc2c2cc(Br)ccc21 (stereo not drawn)
inactive

====

I'd appreciate it if you could supply growth inhibition values for the items below.
assay: inhibition of 3D7 malaria parasite growth – strain 3D7 (AID 2306);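 also: 0% = DMSO wells and 100% = chloroquine plus artemisinin control wells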; details: P. falciparum 3D7 erythrocytic growth, LDH absorbance, 72 h; at 2 µM; stronger effect = higher value
The source made the active and inactive calls. No rule for the calls is given here. Non-standard residues stand in square brackets, D forms with d. Residues, ends and D or L forms follow the SMILES beside them. *: point of attachment. Butanoyl(4-(4-HOPh)) = O=C(CCCc1ccc(O)cc1)*

State the recorded growth inhibition for this entry: `COc1ccc(CNCc2ccccc2)cc1-c1cccc(S(=O)(=O)NCCN2CCCC2)c1`
98% (active)

Which growth inhibition value is on record for `COc1cccc(NC(=O)c2cc([N+](=O)[O-])ccc2NC(=O)CN2CCc3ccccc3C2)c1` ?
100% (active)

I have this compound here, O=C1NC(C(=O)Nc2ccccc2)C(c2ccccc2)S1 (centres undefined) , and I need its recorded growth inhibition.
95% (active)

Could you tell me which growth inhibition is on file for `O=C(Nc1ccc(Cl)cc1)Nc1cccc(-c2cccc(-c3nc4ccccc4[nH]3)c2)c1` ?
100% (active)

Item under review: `NS(=O)(=O)c1cccc(Br)c1` . Reported growth inhibition?
98% (active)

What value of growth inhibition has been reported for the following compound? CN(C)C(CNC(=O)c1cc(-c2ccncc2)c(-c2ccc(NC(=O)Nc3cccc(Cl)c3)cc2)o1)c1ccccc1 (centres undefined)
101% (active)

Recorded growth inhibition for O=C(NCC(=O)N1CCC[C@H]1C(=O)O)[C@@H](Cc1ccccc1)NC(=O)[C@@H]1CCCN1C(=O)CCCc1ccc(O)cc1 ({Butanoyl(4-(4-HOPh))}-P[dF]GP-OH) , please?
81% (active)

Query (compound): `O=C1CCCN1CCCNCc1ccc(-c2ccc(-c3nc4ccc(C(F)(F)F)cc4[nH]3)cc2)cc1` ; field requested: growth inhibition
101% (active)

If you can, please state the reported growth inhibition value of `NC1CCN(c2nc(NCCCc3ccc(O)cc3)nc(NCc3ccccc3-c3ccccc3)n2)CC1` .
102% (active)

// returns reported growth inhibition for input `CCN(CC)CCN(CCN(CC)CC)c1ccc2c(c1)Sc1c(Cl)ccc(Cl)c1S2`
98% (active)

Looking for the measured growth inhibition of Cc1cccc2[nH]c(-c3ccc(-c4cccc(NC(=O)C(C)CN5CCN(C)CC5)c4)cc3)nc12 (centres undefined) , can you help?
98% (active)

Name the reported growth inhibition value associated with the compound `CCN(CCCN1CCCCC1)c1cc(C)nc(Nc2ccc(C(F)(F)F)cc2)n1`
102% (active)

Consider the compound shown here: `O=C(Nc1ccccc1)Nc1ccc(-c2cccc(-c3nc4ccc(C(F)(F)F)cc4[nH]3)c2)cc1` What is its recorded growth inhibition?
101% (active)

Could you tell me which growth inhibition is on file for `Cc1nc(C)c(CC(=O)Nc2cccc(-c3cccc(-c4nc5c(C)cccc5[nH]4)c3)c2)s1` ?
92% (active)

May I ask what growth inhibition has been recorded for `Cc1c(CNCCCNc2nc3cscc3[nH]2)sc(C(F)F)c1Br` ?
99% (active)

May I ask what growth inhibition has been recorded for `Cn1c(Nc2cc(C(C)(C)C)on2)nc2cc(Nc3ccnc(Nc4cccc(S(=O)(=O)N5CCOCC5)c4)n3)ccc21` ?
101% (active)

Quick one: growth inhibition for CCCCC(CC)C(=O)C(NC(=O)[C@H](CSC(c1ccccc1)(c1ccccc1)c1ccccc1)NC(=O)OC(C)(C)C)C(=O)OC (some centres undefined) ?
88% (active)

Endpoint output: growth inhibition of `NC(N)=Nc1ccc(NC(=O)Nc2ccc(N=C(N)N)cc2)cc1` . Value?
85% (active)

Entry `O=C1SC(=Cc2ccc(O)c(O)c2)C(=O)N1c1ccccc1` : reported growth inhibition = ?
91% (active)

Look at this compound and give its reported growth inhibition. `NC(Cc1ccc(Cl)cc1)=NCCN1CCCCCC1`
93% (active)

Request the reported growth inhibition associated with `Cn1cc(C2CCN(CCCCNC(=O)c3sc(-c4ccc(C(F)(F)F)cc4)nc3CO)CC2)c2ccccc21`
95% (active)

Given the entry `COc1c(C2CCN(CCCCNC(=O)c3ccc(C)c(-c4ccc(C(F)(F)F)cc4)c3)CC2)ccc2c1CCCC2` , report its measured growth inhibition.
86% (active)

Looking for the measured growth inhibition of `CCCCc1ccc(C(=O)NC2CCN(C[C@H](O)c3ccnc4ccc(OC)cc34)CC2)cc1` , can you help?
91% (active)

Recorded growth inhibition of CNC(=O)c1cnc(Nc2ccc(OCC(O)CN(C)C)cc2)nc1Nc1cccc(OC)c1 (centres undefined) , please.
103% (active)

Looking for the measured growth inhibition of `COCCN(C)c1ccc(C(=O)Nc2ccccc2)cc1NS(=O)(=O)Cc1ccccc1` , can you help?
92% (active)

Given the compound `CC(C)COc1ccc(Cl)cc1Cc1ccc(-c2nc3ccc(CCN4CCCC4)cc3[nH]2)o1` , what is its reported growth inhibition?
100% (active)

Which growth inhibition value is on record for `Cc1cc(C=C2SC(=Nc3ccccc3)N(C3CCCC3)C2=O)c(C)n1-c1ccc(Cl)cc1` ?
100% (active)

Using the record for `CCOC(=O)Nc1cc(-c2csc(N=C(N)N)n2)cc([N+](=O)[O-])c1` , report its growth inhibition.
101% (active)

So what does the record say about growth inhibition for `c1cc(CNCC2CCN(CC3CCCCC3)CC2)cc(-n2ccnc2)c1` ?
102% (active)

====

test: human hepatoma cell viability loss – ATP luminescence, cytotoxicity control for P. falciparum antimalarial project, primary screen (AID 2303); details: HepG2 viability, 24-48 h, at 10 µM, stronger effect = higher value;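 also: 0% = DMSO wells and 100% = digitonin-killed cells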
Returns: string. Value is fulfilled if measured inhibition is below 10%, and not fulfilled if it is greater than or equal to it.

Given `Cc1cc(NN=Cc2ccc(F)cc2)c2ccc(C(F)(F)F)cc2n1` , is recorded inhibition strictly lower than 10%?
fulfilled

# check: inhibition < 10% for COc1ccc(C2CC(c3ccccc3O)=NN2C(=O)c2ccco2)cc1OC (stereo not given)
not fulfilled

State whether 10% exceeds inhibition recorded for `NCCCCc1c(-c2ccc(Cl)c(Cl)c2)[nH]c2ccc(Cl)cc12` .
not fulfilled

Decide: inhibition of `O=C(Nc1cccc(F)c1)N1CCC(NS(=O)(=O)c2ccc(Br)cc2)CC1` strictly below 10%?
fulfilled

Problem: For the molecule `Cc1cc(Nc2ccncc2)n2nc(C)c(-c3ccc(Cl)cc3)c2n1` , is inhibition under 10%?
fulfilled

Consider `COCCNCc1ccc(-c2cccc(CN(C(=O)NCCc3ccccc3)C3CCN(Cc4ccccc4)CC3)c2)cc1` . Does its inhibition lie strictly below 10%?
not fulfilled

Dear reviewer, please state whether `Cc1cccc2[nH]c(-c3ccc(-c4cccc(NC(=O)COc5ccccc5C(N)=O)c4)s3)nc12` has inhibition strictly beneath 10%.
not fulfilled

Is inhibition strictly under 10% for the entry `Cc1cc(F)ccc1[C@H]1CNCCN1C(=O)N(C)C(C)(C)c1cc(C(F)(F)F)cc(C(F)(F)F)c1` ?
not fulfilled

Does `COc1ccc2nccc([C@@H](O)CN3CCC(NC(=O)C(=Cc4ccc(Cl)cc4Cl)c4ccc(-c5ccccc5)cc4)CC3)c2c1` have inhibition strictly under 10%?
fulfilled

Is 10% strictly greater than the molecule's reported inhibition? molecule: `Cc1cc(CNCCCCCCCNCc2ccc(-c3ccccc3)cc2)ccc1O`
not fulfilled

In the record for `O=[N+]([O-])c1ccccc1C=NNc1ccnc2cc(Cl)ccc12` , is inhibition less than 10%?
fulfilled

I wonder whether `COc1cc2nc(NCCCO)nc(Nc3ccc(Oc4ccccc4)cc3)c2cc1OC` has inhibition below 10%. Can you tell?
not fulfilled

Strictly below 10% in inhibition? `COc1cccc(CN2CCCN(Cc3cccc(NC(=O)c4cc5ccccc5s4)c3)CC2)c1`
not fulfilled

Strictly below 10%: is that where inhibition of `Cc1nc2c(Nc3nc(-c4ccncc4)cs3)ncnc2n1-c1ccccc1Cl` sits?
not fulfilled

I wonder whether CN(Cc1ccc(-c2ccc(C(F)(F)F)cc2)cc1)C(=O)Cn1c(CCc2cccc(F)c2F)cc(=O)c2ccc(OCC3CCCN3C)cc21 (stereo not given) has inhibition below 10%. Can you tell?
not fulfilled

Find out if reported inhibition for `C=CCO[C@@H]1O[C@H](COC(c2ccccc2)(c2ccccc2)c2ccccc2)[C@@H](OC(C)=O)[C@H](OC(C)=O)[C@H]1NC(C)=O` is less than 10%
fulfilled

API: query returns whether the molecule falls strictly under 10% in inhibition. Query: `O=C(Nc1cc(C(F)(F)F)ccc1Cl)c1ccc(Cn2cc(Br)cn2)cc1`
not fulfilled

Criterion: inhibition strictly below 10%. Is it met by `COc1ccc(OC)c(Cc2cnc3nc(N)[nH]c(=O)c3c2C)c1` ?
not fulfilled

Does the reported inhibition of the following molecule sit strictly below 10%? COc1ccc2ccc(F)c(CC(=O)N3CCOC(CNCc4cccc(-c5ccsc5)n4)C3)c2n1 (stereo not given)
fulfilled
